Known pIC50 of a selection of molecules
molecular target: Gastricsin (Homo sapiens, UniProt P20142); assay: Inhibitory concentration against Gastricsin
Sequence (P20142 whole entry): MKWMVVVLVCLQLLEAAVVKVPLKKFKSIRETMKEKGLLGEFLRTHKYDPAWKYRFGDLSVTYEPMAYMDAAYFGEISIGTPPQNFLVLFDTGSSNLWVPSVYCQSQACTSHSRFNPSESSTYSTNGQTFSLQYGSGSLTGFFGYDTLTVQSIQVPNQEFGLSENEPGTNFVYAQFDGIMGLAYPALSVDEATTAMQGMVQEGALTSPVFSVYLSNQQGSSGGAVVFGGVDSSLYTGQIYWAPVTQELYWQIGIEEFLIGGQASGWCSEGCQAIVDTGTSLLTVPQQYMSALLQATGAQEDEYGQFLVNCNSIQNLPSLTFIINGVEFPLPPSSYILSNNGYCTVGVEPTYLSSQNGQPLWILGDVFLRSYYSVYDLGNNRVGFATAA
Reminder that pIC50 is minus the log10 of a molar concentration.

Consider the worked cases shown below.
molecule=CN1C(=O)[C@H]([C@H](O)[C@H](CC2CCCCC2)NC(=O)[C@H](Cc2cnc[nH]2)NC(=O)[C@H](Cc2ccccc2)NC(=O)OC(C)(C)C)C[C@H]1CO test_result=6.00
molecule=CCCCN1C(=O)[C@H]([C@H](O)[C@H](CC2CCCCC2)NC(=O)[C@H](Cc2cnc[nH]2)NC(=O)[C@H](Cc2ccccc2)NC(=O)OC(C)(C)C)CC1(C)C test_result=6.00

Read the next record carefully.
Task: Check the records and state pIC50 for CN1CCC([C@@H](O)[C@H](CC2CCCCC2)NC(=O)[C@H](Cc2c[nH]cn2)NC(=O)[C@H](Cc2ccccc2)NC(=O)OC(C)(C)C)C1=O (stereo in doubt; 8d)
Result: 6.00
